B1: F1*; the commonest letter at each place (parent)
chain: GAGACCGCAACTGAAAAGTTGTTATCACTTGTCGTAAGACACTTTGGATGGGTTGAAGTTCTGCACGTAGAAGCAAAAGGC

Variants of: B1
Experiment summary: fraction ligated after 30 min (ligated reads / total reads); higher = more ligase activity
Condition: with F1*sub RNA substrate (template-directed ligation), 42 °C
Endpoint name: fraction ligated
Just the number, please, no unit after it.

Variant spec | Reported result
T23A G34A | 0.814

Assign fraction ligated to the following record: G34A G50T
0.778

Assign fraction ligated to the following record: C42T T43G
0.818

Assign fraction ligated to the following record: A39C A57T
0.798

Assign fraction ligated to the following record: A27C T29A
0.818

Assign fraction ligated to the following record: C28A A41C
0.794

Assign fraction ligated to the following record: T29C T30A
0.796

Assign fraction ligated to the following record: A27C A57T
0.807
